Test system: CCRF-CEM leukemia
Assay: NCI-60 one-dose screen, 48 h
Settings: 10 µM unless noted
The panel holds about 83,000 compounds, 20% with a hit somewhere; the sample as a whole holds those more often. Active and inactive are the calls of the source. The calls were made as follows: active = growth percent below 10; inactive = the rest.
Possible outcomes: True = active, False = inactive

# compound, answer_label
records = [
    ("Cc1cccc(C[C@H](NC(=O)Nc2ccc(C)cc2F)C(=O)N[C@@H]2C(=O)N3C[C@H](O)C[C@H]3C(=O)N3CCN(C)C[C@H]3C(=O)N[C@@H](C)C(=O)N3C[C@H](C)C[C@H]3C(=O)O[C@H]2C)c1", "False"),
    ("C/C=C/C1OC23CCCCC2C(C#N)(C(=N)O3)C1(C#N)C#N (stereo unspecified)", "False"),
    ("CC(C)C1=NOC(=O)C1=Cc1cn(-c2ccco2)nc1-c1ccccc1", "False"),
    ("CCN1CCN(CC(=O)Nc2nc3ccc(NCc4ccc(Cl)cc4)cc3s2)CC1", "False"),
    ("O=C(NCCCCCCCNC(=O)OCc1ccc2c(Cl)cc(Cl)c(O)c2n1)OCc1ccc2c(Cl)cc(Cl)c(O)c2n1", "True"),
    ("C#C[C@]1(O)CC[C@H]2[C@@H]3CC=C4c5nc(N)sc5CC[C@]4(C)[C@H]3CC[C@@]21C", "False"),
    ("CN(C)c1ccc(-c2ccc(-c3ccc(C(=N)N)cc3)s2)cc1", "True"),
    ("O=C(Nc1ccc(Nc2ccncc2)cc1)c1ccc([N+](=O)[O-])cc1", "True"),
    ("Oc1cc(Nc2ccnc3cc(Cl)ccc23)c2ncccc2c1", "False"),
    ("C[C@H]1[C@H](C)CC[C@]2(COC(=O)CCC(=O)O)CC[C@]3(C)C(=CC[C@@H]4[C@@]5(C)CCCNC(C)(C)[C@@H]5CC[C@]43C)[C@H]12", "False"),
    ("CCOC(=O)c1nn(C2CCCCO2)c2ccc(NC(=O)CSc3nc4ccccc4c(=O)[nH]3)cc12 (stereo unspecified)", "False"),
    ("Nc1cccc2c1C(=O)c1cccc(NC(=O)c3ccccc3)c1C2=O", "False"),
    ("CCn1cc(-c2ccnc(NCCNS(=O)(=O)c3cccc4ccccc34)c2)c(-c2cccc(O)c2)n1", "False"),
    ("CC(C)(C)c1cc(C(=O)Nc2ccccc2C(=O)NCCN)cc(C(C)(C)C)c1", "True"),
    ("Cc1cc(NN=C(c2ccc(O)cc2)c2ccc(O)cc2)c([N+](=O)[O-])cc1[N+](=O)[O-]", "False"),
    ("O=C(Oc1ccc(Cl)cc1[N+](=O)[O-])Oc1ccc(Cl)cc1[N+](=O)[O-]", "False"),
    ("O=c1[nH]c2cc(Cl)c(Cl)cc2n2cc3ncccc3c12", "False"),
    ("C=C(CN=[N+]=[N-])[C@@H]1CC[C@]2(C)[C@H](CC[C@@H]3[C@H]4[C@H]5OC(=O)[C@@]4(CCC5(C)C)CC[C@]32C)[C@@]1(C)CCC#N", "False"),
    ("CC(C)c1ccc(C(=O)Nc2nc3ccc(O)cc3s2)cc1", "False"),
    ("COc1cc(-c2nc(SCCC(C)C)nc(Nc3ccc(S(N)(=O)=O)cc3)c2C#N)cc(OC)c1OC", "False"),
    ("COc1ccc(CC(C#N)c2ccc(Cl)cc2)cc1 (stereo unspecified)", "False"),
    ("C=C(C)C1CCC2(C(=O)O)CCC3(C)C(CCC4C5(C)CCC(OC(=O)NCc6ccccc6)C(C)(C)C5CCC43C)C12 (stereo unspecified)", "False"),
    ("COc1ccc2nc3ccccc3c(NCCNCCO)c2c1", "False"),
    ("CO[C@H]1CC[C@@]2(C)C(=CC[C@H]3[C@@H]4C[C@H](O)C[C@@]4(C)CC[C@@H]32)C1", "False"),
    ("CCOC(=O)c1nc2c3ccccc3ccn2c1C(=O)OC", "False"),
    ("C[C@H]1[C@H](C)CC[C@]2(C(=O)N3CCN(C)CC3)CC[C@]3(C)C(=CC[C@@H]4[C@@]5(C)C/C(=C/c6ccco6)C(=O)C(C)(C)[C@@H]5CC[C@]43C)[C@H]12", "False"),
    ("CCOC(=O)COc1ccc2c(c1)O/C(=C\\c1ccc(O)cc1)C2=O", "False"),
    ("O=c1cc(-c2ccccc2)oc2c(O)c(O)ccc12", "False"),
    ("O=C(O)c1cn(C2CC2)c2cc(N3CCN(Cc4c(O)ccc5ccccc45)CC3)c(F)cc2c1=O", "False"),
    ("Cc1cc(SC#N)ncn1", "False"),
    ("Fc1ccc(NC(=S)c2ccccc2)cc1", "False"),
    ("c1nc(N2CCOCC2)c2[nH]ccc2n1", "False"),
    ("COc1ccc(NC(=S)NNc2ccc(-c3ccc(OC)c(OC)c3)nn2)cc1", "False"),
    ("Cc1cnc(N)nc1OCC(C)(C)CNC(=O)c1cccc(-c2ccc(S(=O)(=O)Nc3ccc4c(c3)N(C(=O)C3CC3)CCC4)cc2)c1", "False"),
    ("COc1ccc2[nH]c(C(=O)N3CCN(C(=O)OCc4ccc5c(Br)cc(Br)c(O)c5n4)CC3)cc2c1", "True"),
    ("CC(=O)OC[C@]12CC[C@@H]([C@@H](C)C(N)=O)[C@@H]1[C@H]1CC[C@@H]3[C@@]4(C)CC[C@H](OC(C)=O)C(C)(C)[C@@H]4CC[C@@]3(C)[C@]1(C)CC2", "True"),
]
